Reference source for all entries: PubChem BioAssay

# Assay summary: viability loss with induced miR-34 in A549 – imaging, A549 dox-inducible miR-34, nuclei and caspase counts, primary screen (AID 1347080); note: test concentration not given here
# Condition details: A549 miR-34 inducible, Hoechst nuclei count, 48 h; active compounds read low; cell number ratio, induced over uninduced
Give measured fold change for each item. Keep answers brief.
API note: the answer field is a bare number with no unit suffix.

Problem: Please supply the value of reported fold change for the item O=C(O)c1ccc(-c2ccc([N+](=O)[O-])cc2Cl)o1
Result: 0.876

Problem: Please supply the value of reported fold change for the item O=C(C=Cn1cnc(-c2cc(C(F)(F)F)cc(C(F)(F)F)c2)n1)N1CC(F)(F)C1
Result: 0.887

Problem: Please supply the value of reported fold change for the item COc1ccc(CCCOc2cc(CCn3ccnc3)ccc2OC)cc1
Result: 1.41

Problem: Please supply the value of reported fold change for the item S=C(NC1CCCCC1)N1CCC(C2C=NC=N2)CC1 (stereo unspecified)
Result: 0.857

Problem: Please supply the value of reported fold change for the item Cc1ccc(C(=O)N(CCCN)C(c2oc3cc(Cl)ccc3c(=O)c2Cc2ccccc2)C(C)C)cc1 (stereo unspecified)
Result: 0.942

Problem: Please supply the value of reported fold change for the item N=C(N)c1ccc(OCCCCCOc2ccc(C(=N)N)cc2)cc1 (tested in a mixture with another compound)
Result: 1.03

Problem: Please supply the value of reported fold change for the item COc1ccc(N2CCN(c3ncnc4sccc34)C(C)C2=O)cc1 (stereo unspecified)
Result: 0.791

Problem: Please supply the value of reported fold change for the item CC(C)(NS(=O)(=O)c1ccc(Oc2ccc(F)cc2)cc1)C(=O)NO
Result: 1.15

Problem: Please supply the value of reported fold change for the item CNC(C)C(=O)NC(C(=O)N1CCCC1C(=O)Nc1snnc1-c1ccccc1)C1CCCCC1 (stereo unspecified)
Result: 0.982

Problem: Please supply the value of reported fold change for the item Cc1[nH]c2ccccc2c1C1=C(NCCc2ccc(F)cc2)C(=O)N(C)C1=O
Result: 0.916

Problem: Please supply the value of reported fold change for the item O=C(NCCc1ccco1)c1cc(C2CC2)[nH]n1
Result: 0.916

Problem: Please supply the value of reported fold change for the item COc1ccc2cc([C@@H](C)C(=O)O)ccc2c1
Result: 0.747

Problem: Please supply the value of reported fold change for the item CN1C2CC(OC(=O)C(CO)c3ccccc3)CC1C1OC12 (stereo unspecified)
Result: 0.901

Problem: Please supply the value of reported fold change for the item N#CC(=C1SCC(c2ccc(Cl)cc2Cl)S1)n1ccnc1 (stereo unspecified)
Result: 0.898

Problem: Please supply the value of reported fold change for the item CC1CCN(CCC2CCCN2S(=O)(=O)c2cccc(O)c2)CC1 (stereo unspecified)
Result: 0.96

Problem: Please supply the value of reported fold change for the item CCn1c(-c2nonc2N)nc2c(C#CC(C)(C)O)ncc(OCC3CCCNC3)c21 (stereo unspecified)
Result: 0.949

Problem: Please supply the value of reported fold change for the item O=c1ccn([C@@H]2O[C@H](COP(=O)(O)OP(=O)(O)O)[C@@H](O)[C@H]2O)c(=O)[nH]1
Result: 0.992

Problem: Please supply the value of reported fold change for the item Nc1ccc(Sc2ccc(N3C(=O)c4ccc(N)cc4C3=O)cc2)cc1
Result: 0.816

Problem: Please supply the value of reported fold change for the item COCc1c(C(C)C)nc(C(C)C)c(C=CC(O)CC(O)CC(=O)O)c1-c1ccc(F)cc1 (stereo unspecified)
Result: 1.06

Problem: Please supply the value of reported fold change for the item Cc1cnc(CN(C)C(=O)c2n[nH]c3ccccc23)[nH]1
Result: 0.891

Problem: Please supply the value of reported fold change for the item C=CC1(C)CC(=O)C2(O)C(C)(O1)C(OC(C)=O)C(O)C1C(C)(C)CCC(O)C12C (stereo unspecified)
Result: 0.994

Problem: Please supply the value of reported fold change for the item O=C(O)CN(CCO)CCO
Result: 0.873

Problem: Please supply the value of reported fold change for the item CCC1OC(=O)C(C)C(=O)C(C)C(OC2OC(C)CC(N(C)C)C2O)[C@](C)(OC)CC(C)C(=O)C(C)C2N(CCCCn3cnc(-c4cccnc4)c3)C(=O)O[C@]12C (stereo partly specified)
Result: 0.904

Problem: Please supply the value of reported fold change for the item O=c1[nH]cnc2c1ncn2C1OC(CO)C(O)C1O (stereo unspecified)
Result: 0.971

Problem: Please supply the value of reported fold change for the item CCOCCOCCOCCOCCOCCOCCOCCOCCOCCO (tested in a mixture with another compound)
Result: 0.959

Problem: Please supply the value of reported fold change for the item CCC1(O)CC2CN(CCc3c([nH]c4ccccc34)[C@@](C(=O)OC)(c3cc4c(cc3OC)N(C)C3[C@]45CCN4CC=C[C@@](CC)([C@@H](OC(C)=O)[C@]3(O)C(=O)OC)[C@H]45)C2)C1 (stereo partly specified)
Result: 1.18

Problem: Please supply the value of reported fold change for the item CN1C(=O)CCC1c1cccnc1 (stereo unspecified)
Result: 0.988

Problem: Please supply the value of reported fold change for the item C[C@]12CC(O)C3C(CCC4=CC(=O)CC[C@@]43C)C1CCC2C(=O)CO (stereo partly specified)
Result: 0.859

Problem: Please supply the value of reported fold change for the item O=CC(O)C(O)C(O)CO (stereo unspecified)
Result: 0.913

Problem: Please supply the value of reported fold change for the item CN1CCC(CN(C)Cc2ccc(-c3nc(-c4cccnc4)cc(=O)[nH]3)cc2)CC1
Result: 0.831

Problem: Please supply the value of reported fold change for the item Cc1ccccc1-n1c(Cn2nc(-c3cccc(O)c3)c3c(N)ncnc32)nc2cccc(C)c2c1=O
Result: 0.979

Problem: Please supply the value of reported fold change for the item CCCCC/C=C\C/C=C\C/C=C\C=C\[C@@H](O)CCCC(=O)O
Result: 0.957

Problem: Please supply the value of reported fold change for the item CCc1cccc2c3c([nH]c12)[C@](CC)(CC(=O)O)OCC3
Result: 0.926

Problem: Please supply the value of reported fold change for the item O=C(O)[C@H]1NCCC[C@H]1C(=O)O
Result: 1.06

Problem: Please supply the value of reported fold change for the item O=C(O)C1CN(CCCP(=O)(O)O)CCN1 (stereo unspecified)
Result: 0.99

Problem: Please supply the value of reported fold change for the item CCOC(=O)C(CCc1ccccc1)NC(C)C(=O)N1C(=O)N(C)CC1C(=O)O (stereo unspecified)
Result: 0.891

Problem: Please supply the value of reported fold change for the item CN1[C@@H]2CC[C@@H]1CC(OC(=O)C(O)c1ccccc1)C2 (stereo partly specified)
Result: 0.924

Problem: Please supply the value of reported fold change for the item CC(=O)[C@@]1(O)CCC2C3CC(C)C4=CC(=O)CC[C@]4(C)C3CC[C@@]21C (stereo partly specified)
Result: 0.817

Problem: Please supply the value of reported fold change for the item C#C[C@@]1(O)CC[C@H]2[C@@H]3CCc4cc(O)ccc4[C@@H]3CC[C@@]21C
Result: 0.952

Problem: Please supply the value of reported fold change for the item C=C1C(CO)C(O)CC1n1cnc2c(=O)[nH]c(N)nc21 (stereo unspecified)
Result: 1.01

Problem: Please supply the value of reported fold change for the item O=C1NC(=O)C(=Cc2ccc(-c3ccc(F)cc3O)o2)S1
Result: 0.91
